# Test system: SKOV3
# Assay Protocol: Primary qHTS to identify gynecologic anti-cancer compounds using libraries of approved drugs and bioactive compounds (AID 1345084); further: nearly all actives have a fitted effect of over 55% in size
# Measurement Conditions: Gynecologic cancer cell panel viability, ATPlite luminescence, 48 h; series mostly up to 57.5 µM
Records with an inconclusive call do not appear. Active and inactive are the calls of the source. The call rests on the fitted dose curve; in most records, active means well fitted cell-killing curve with a large enough effect; inconclusive means small, poorly fitted or top-dose-only effect, or effect the other way; inactive means flat fitted curve, though single readings scatter.
Possible outcomes: active, inactive

1. O[C@@H](c1cc(C(F)(F)F)nc2c(C(F)(F)F)cccc12)[C@H]1CCCCN1 = active
2. NS(=O)(=O)c1ccc(Cl)c(S(N)(=O)=O)c1 = inactive
3. CCc1cc(Cl)c(OC)c(C(=O)NC[C@@H]2CCCN2CC)c1O = inactive
4. C=CCN1CCc2nc(N)sc2CC1 = inactive
5. NCCNc1cccc2ccccc12 = inactive
6. CC(=O)O[C@H]1C[C@@H]2CC[C@@H]3[C@H](CC[C@@]4(C)[C@H]3C[C@H]([N+]3(C)CCCCC3)[C@@H]4OC(C)=O)[C@@]2(C)C[C@@H]1N1CCCCC1 = inactive
7. CC(C)Cn1cnc2c1c(=O)n(C)c(=O)n2C = inactive
8. CCCCCCCCCCCCCCC[C@H](O)[C@@H](N)CO = inactive
9. CCN1CCN(C(=O)N[C@@H](C(=O)N[C@@H]2C(=O)N3C(C(=O)O)=C(CSc4nnnn4C)CS[C@H]23)c2ccc(O)cc2)C(=O)C1=O = inactive
10. CN(C)CCC[C@@]1(c2ccc(F)cc2)OCc2cc(C#N)ccc21 = inactive
11. CCC1Nc2cc(Cl)c(S(N)(=O)=O)cc2S(=O)(=O)N1 (centres undefined) = inactive
12. CCOc1ccc(NC(C)=O)cc1 = inactive
13. CC[C@H](c1ccc(O)cc1)[C@@H](CC)c1ccc(O)cc1 = inactive
14. O=C(O)P(=O)(O)O = inactive
15. CCC(C(=O)OCCOCCN(CC)CC)c1ccccc1 (centres undefined) = inactive
16. NC1CCN(c2nc3c(cc2F)c(=O)c(C(=O)O)cn3-c2ccc(F)cc2F)C1 (centres undefined) = inactive
17. CC1CCc2c(N3CCC(O)CC3)c(F)cc3c(=O)c(C(=O)O)cn1c23 (centres undefined) = inactive
18. COc1ccc(/C=N/NC(=O)c2ccncc2)cc1OC = inactive
19. CC(=O)NO = inactive
20. O=C1[C@H](CC[C@H](O)c2ccc(F)cc2)[C@@H](c2ccc(O)cc2)N1c1ccc(F)cc1 = inactive
21. CC(=O)OCC(=O)[C@H]1CC[C@H]2[C@@H]3CCC4=CC(=O)CC[C@]4(C)[C@H]3CC[C@]12C = inactive
22. CN1CCC[C@@H]1CCO[C@](C)(c1ccccc1)c1ccc(Cl)cc1 = active
23. COc1ccc2c(c1)c1c3n2CCN(C)C3=NCC1 = inactive
24. O=C(O)C(Cc1cc(I)c(O)c(I)c1)c1ccccc1 (centres undefined) = inactive
25. C/C=C/c1ccc(O)c(OC)c1 = inactive
26. O=C(CCN1CCN2CCCC2C1)N1c2ccccc2Sc2ccc(Cl)cc21 (centres undefined) = inactive
27. Cc1ccc(O)c([C@H](CCN(C(C)C)C(C)C)c2ccccc2)c1 = inactive
28. CC(=O)N[C@@H](CCC(=O)O)C(=O)O = inactive
29. CC(C)(C)CC(C)(C)c1ccc(O)c(-n2nc3ccccc3n2)c1 = inactive
